# test-target: T1, human DKK1 (human, UniProt O94907 32-266)
# T1 sequence: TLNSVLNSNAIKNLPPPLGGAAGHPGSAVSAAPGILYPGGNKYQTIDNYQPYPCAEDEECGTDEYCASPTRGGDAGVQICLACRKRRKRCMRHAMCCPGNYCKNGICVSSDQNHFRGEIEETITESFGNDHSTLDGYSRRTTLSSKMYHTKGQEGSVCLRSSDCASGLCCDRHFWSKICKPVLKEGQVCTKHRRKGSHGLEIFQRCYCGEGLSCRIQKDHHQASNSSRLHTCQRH
# assay-notes: cell-based or functional assay
assay-endpoint: ST2 EC50 (nM)
Numbers only, in nM.

These recorded examples may help you get a feel for the data.
response.value for 6.116.6 (antibody, V domains shown, Fully human IgG, kappa (Vk)) VH: QVQLVESGGGVVQPGRSLRLSCAASGFTFSGYGMHWVRQAPGKGLEWVAVISYDGNDKYYADSVKGRFTISRDNAKNTLYLQMNSLRAEDTAVYYCARELRVLWGQGTLVTVSS VL: DIVMTQTPLSLSVTPGQPASISCKSGQSLLHNDGKTYLYWYLQKPGQPPQFLIYEVSNRFSRVPDRFSGSGSGTDFTLKISRVEAEDVGIYYCMQSIQLPWTFGQGTQVEIK (field: ST2 EC50) = 2.77

get_value(item= 5.25.1 (antibody, V domains shown, Fully human hybridoma IgG, kappa (Vk)) VH: QVQLVQSGAEVKKPGASVKVSCKASGYTFTSYDINWVRQATGQGLEWMGWMDPNSGNTGYAQKFQGRVTMTRNTSISTAFMELSSLRSEDTAVYYCARTDYFYFGMDVWGQGTTVTVSS VL: DIQMTQSPSSLSASVGDRVTITCQASQDISKDLNWYQQKPGKAPRLLIYDASNLETGVPSRFSGSGSGTDFTFTISSLQPEDIATFYCQQYDHLPIAFGQGTRLEIK , readout=ST2 EC50) returns 5.96

The reported value for 5.17.1 (antibody, V domains shown, Fully human hybridoma IgG, kappa (Vk)) VH: QVQLQESGPGLVKPSETLSLTCTVSGGSISSYYWSWIRQPPGKGLEWIGYIYYSGNTNYNPSLKSRVTISVDTSKNQFSLKLRSVTAADTAVYYCARYNWNNDLFDYWGQGTLVTVSS VL: DIQMTQSPSSLSASVGDRVTITCQASQDINNYLNWYQQKPGKAPNLLIYDASNLETGVPSRFSGSGSGTDFTFTISSLQPADIATYYCQQYDDFPLTFGGGTKVEIK in terms of ST2 EC50 is 8.24

As a next step, examine the binder that follows.
Looking up 5.80.1 (antibody, V domains shown, Fully human hybridoma IgG, lambda (Vl)) VH: EVQLVQSGAEVKKPGESLKISCKGSGYSFTSYWIGWVRQMPGKGLEWMGIIYPGDSDTRYSPSFQGQVTISADKSISTAYLQWSSLTASDTAMYYCARQGESFDYWGQGTLVTVSS VL: QSVLTQPPSVSGAPGQRVTISCTGSSSNIGADYDVHWYQQLPGTAPKLLIYDYSNRPSGVPDRFSGSKSGTSASLAITGLQAEDEADYYCQSYDNSLSGYVVFGGGTKLTVL , I see its ST2 EC50 listed as 5.03
